Assay: Plasma pharmacokinetics after i.v. administration
Assay type: in vivo, SD rats
Conditions: SD, rat, plasma, iv; i.v. 0.4 mg/kg, female rats; read-out: MRT0–t
MEASURED PROPERTY: MRT last (h)
Numbers only, in h.

Ask: If you can, please state the reported MRT last value of C[C@H]1CC[C@@H]2N(C1)C[C@H]1[C@@H]3C[C@H]4[C@@H](CC(=O)[C@H]5C[C@@H](O)CC[C@@]54C)[C@@H]3CC[C@@H]1[C@]2(C)O .
Result: 2.04

====

Assay: Multiple-dose (successive i.g.) plasma pharmacokinetics
Assay type: in vivo, SD rats
Settings: SD, rat, plasma, po; successive i.g. 2 mg/kg, male rats
MEASURED PROPERTY: AUC(0-inf) (µg·h/mL)
Answers are plain numbers, in µg·h/mL.

Ask: If you can, please state the reported AUC(0-inf) value of C[C@H]1CC[C@@H]2N(C1)C[C@H]1[C@@H]3C[C@H]4[C@@H](CC(=O)[C@H]5C[C@@H](O)CC[C@@]54C)[C@@H]3CC[C@@H]1[C@]2(C)O .
Result: 0.455

====

Test: Single-dose plasma pharmacokinetics after i.g. administration
Assay type: in vivo, SD rats
Conditions: SD, rat, po; i.g. 1 mg/kg single dose, female rats, plasma, n = 5
Experimental: Pharmacokinetic studies of verticinone after intravenous (i.v.) and intragastrical (i.g.) administration to rats were designed to determine pharmacokinetic parameters and absolute bioavailability. […] The quantification of verticinone was performed by a LC-MS method based on the previously reported method with slight modifications. […] The pharmacokinetic parameters were calculated by the DAS 2.0 software (Chinese Pharmacological Association, Beijing, China) using a standard non-compartmental method. […]
MEASURED PROPERTY: Cmax (ng/mL)
One number for each entry, in ng/mL.

Ask: If you can, please state the reported Cmax value of C[C@H]1CC[C@@H]2N(C1)C[C@H]1[C@@H]3C[C@H]4[C@@H](CC(=O)[C@H]5C[C@@H](O)CC[C@@]54C)[C@@H]3CC[C@@H]1[C@]2(C)O .
Result: 3.67

====

Assay: Single-dose plasma pharmacokinetics after i.g. administration
Assay type: in vivo, SD rats
Settings: SD, rat, plasma, po; i.g. 2 mg/kg single dose, female rats; read-out: MRT0–t
MEASURED PROPERTY: MRT last (h)
Give bare numbers, in h.

Ask: If you can, please state the reported MRT last value of C[C@H]1CC[C@@H]2N(C1)C[C@H]1[C@@H]3C[C@H]4[C@@H](CC(=O)[C@H]5C[C@@H](O)CC[C@@]54C)[C@@H]3CC[C@@H]1[C@]2(C)O [verticinone, Verticinone] .
Result: 3.42

====

Test: Single-dose plasma pharmacokinetics after i.g. administration
Format: in vivo, SD rats
Settings: SD, rat, plasma, po; i.g. 1 mg/kg single dose, female rats; read-out: t1/2z (converted)
MEASURED PROPERTY: half-life (h)
Answers are plain numbers, in h.

Ask: If you can, please state the reported half-life value of C[C@H]1CC[C@@H]2N(C1)C[C@H]1[C@@H]3C[C@H]4[C@@H](CC(=O)[C@H]5C[C@@H](O)CC[C@@]54C)[C@@H]3CC[C@@H]1[C@]2(C)O [verticinone, Verticinone] .
Result: 2.86
